These measurements were taken from patent US20050142568A1.

- STUDY_TARGET: T1, GST-CRN-1 (C. elegans, UniProt Q9N3T2 21-382)
- T1 construct: also called CRN-1 GST-fusion protein; not shown: glutathione S-transferase tag encoded by vector pGEX4T-2
- T1 sequence (looked up): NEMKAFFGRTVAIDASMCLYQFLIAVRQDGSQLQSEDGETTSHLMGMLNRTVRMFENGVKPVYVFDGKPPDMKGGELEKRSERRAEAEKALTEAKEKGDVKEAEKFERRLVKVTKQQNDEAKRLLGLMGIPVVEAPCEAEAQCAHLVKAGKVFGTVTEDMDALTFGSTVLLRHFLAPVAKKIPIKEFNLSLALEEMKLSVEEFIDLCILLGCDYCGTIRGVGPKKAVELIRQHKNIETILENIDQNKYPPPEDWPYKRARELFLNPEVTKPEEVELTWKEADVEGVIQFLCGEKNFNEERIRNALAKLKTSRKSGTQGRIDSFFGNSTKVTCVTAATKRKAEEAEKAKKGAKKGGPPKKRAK
- METHOD: GST pull-down, 35S-Met protein vs GST fusion; - means no detectable binding (footnote a)
VALUE_KIND: binding result

^35S-Methionine labeled CRN-2 (enzyme, C. elegans) MALYELVDIGANLGHPSYQKDLNDVLDRAKQAGLSKIMVTGTSEKISHECADLVEKYPGFLYFTAGVHPHDAKDWNDGTLEALKKLQENPSCVAVGECGLDFNRNFSPQDVQKEVFAKQVDMAVKLQKPLFIHEREAHEDMVKILTAAGPSLPPAVIHCFTGTVVEAKKYLEMGFYIGLTGFLWKDRSDNGVQAGLRSGEIPIEKLVLETDAPYMYPKINDKKIPKEIKSLITPETEALHNFSSFNRNEPCSLAAVCELVAAFAGRDPKEVAKITTENAKKVYKLE	no binding
^35S-Methionine labeled CRN-5 (enzyme, C. elegans) MAGRLREMRCELSFLKNADGSACFSQGATCIWASCSGPGDVHASKASDEAMTLDISYRANCGDNKFNVLNNIIHSTLSNAINLELFPHTTISVTVHGIQDDGSMGAVAINGACFALLDNGMPFETVFCGVLIVRVKDELIIDPTAKQEAASTGRVLFSVCKGSDGHPEVCAMDAIGHWDFIQLEAAWSLAQPSASAIFDFYKTVMKRKLSVDEQ	no binding
^35S-Methionine labeled CRN-6 (enzyme, C. elegans, UniProt P34508-2 18-373, looked up, 35S-methionine labelled) AYQCKDNNGSNVDWFVFYKLPHLWNHPDNVPISNGTGFLYFDVNNKNWKLMPQGMDVENNAVYYTLQQYYNSNMNTTFSYMYNDEWPDSTIWSNSSGHAKGVTVFDQYTGFWMIHSIPKFPSKDMFRFPSNAHYYGQMGICISYNTVSLATIAQQLFYYNTFTYQFNLPQSFANQFPVLSQLKNKEYNKSPPLTSTKVLKSLGGQHFRHFAKTGEWGKDLYSDFVGPTLKSSIKVETWNHQSGDEYNLPSVCDPNHVQSTMSAKYIRLPYAIDYSSYEDHSKFVVAYSESSSKPPIPYVCIGDINRQSHQIHRGGGTMCIYDQETYFQFANIISETVPCTKATAEKVDALANNRYF	no binding
